Molecular target: UniProt:P15038
Experiment: Inhibition of ATPase activity of Helicase4 from Escherichia coli at 10 uM
Type: functional
Measured endpoint: inhibition (%)

>>> print(df.to_string())
                                   compound  target_under_test  measured_endpoint  test_result
0        O=C(O)Cc1ccc2c(c1)C(=O)c1ccccc1CS2     UniProt:P15038         inhibition           93
1  CC(=O)Nc1ccc2c(c1)C(=O)c1cc(CC(=O)O)ccc1SC2     UniProt:P15038         inhibition           99
2  CC(C(=O)O)c1ccc2c(c1)C(=O)c1ccccc1CS2 (stereo unspecified)     UniProt:P15038         inhibition           98

A: CCOC(=O)Cc1ccc2c(c1)C(=O)c1ccccc1CS2
B: Cc1ccc2c(c1)CSc1ccc(CC(=O)O)cc1C2=O
C: O=C(O)Cc1ccc2c(c1)C(=O)c1ccccc1C[S+]2[O-] (stereo unspecified)
hey, can you rank those compounds up there by inhibition? biggest number first please Hello, could you send the labels back in the order asked? Thank you. B, C, A
(B: 78%, C: 2%, A: 0%)

----------
Target: DNA helicase IV (Escherichia coli K-12, UniProt P15038, Y473A)
Assay: Inhibition of ATPase activity of Tyr473Ala mutated Helicase4 in presence of ATP (5x Km(ATP)) and dT25 (5x KDNA)
Measured endpoint: IC50 (µM)
Report the figure in µM without appending any unit label.

Give the measured IC50 of O=C(O)Cc1ccc2c(c1)C(=O)c1ccccc1CS2 . 5.5

----------
Target: DNA helicase IV (Escherichia coli K-12)
Sequence (P15038 whole entry): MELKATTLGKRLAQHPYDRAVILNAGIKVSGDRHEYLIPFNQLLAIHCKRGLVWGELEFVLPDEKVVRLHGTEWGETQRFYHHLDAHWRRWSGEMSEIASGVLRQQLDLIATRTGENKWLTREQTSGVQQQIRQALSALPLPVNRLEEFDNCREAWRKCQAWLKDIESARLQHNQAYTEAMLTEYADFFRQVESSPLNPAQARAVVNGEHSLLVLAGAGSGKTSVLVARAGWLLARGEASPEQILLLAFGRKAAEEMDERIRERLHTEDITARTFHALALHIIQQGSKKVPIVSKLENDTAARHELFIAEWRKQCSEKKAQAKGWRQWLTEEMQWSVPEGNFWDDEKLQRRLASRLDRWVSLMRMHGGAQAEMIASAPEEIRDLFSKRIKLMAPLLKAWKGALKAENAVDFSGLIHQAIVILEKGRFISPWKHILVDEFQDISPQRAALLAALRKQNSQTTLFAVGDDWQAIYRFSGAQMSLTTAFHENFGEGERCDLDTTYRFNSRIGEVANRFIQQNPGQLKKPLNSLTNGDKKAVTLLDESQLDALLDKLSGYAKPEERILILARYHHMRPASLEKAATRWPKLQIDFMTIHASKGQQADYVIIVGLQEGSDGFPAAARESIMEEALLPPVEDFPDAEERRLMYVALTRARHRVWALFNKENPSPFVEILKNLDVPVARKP
Test: Inhibition of ATPase activity of Helicase4 from Escherichia coli in presence of ATP (5x Km(ATP)) and dT25 (5x KDNA)
Assay type: functional
pIC50: −log10 of the molar value.
Measured endpoint: pIC50

                             molecule  measured_endpoint  test_result
0  O=C(O)Cc1ccc2c(c1)C(=O)c1ccccc1CS2              pIC50         5.30

I: CC(C(=O)O)c1ccc2c(c1)C(=O)c1ccccc1CS2 (centres undefined)
II: CC(=O)Nc1ccc2c(c1)C(=O)c1cc(CC(=O)O)ccc1SC2
III: Cc1ccc2c(c1)CSc1ccc(CC(=O)O)cc1C2=O
hey, can you rank those molecules up there by pIC50? biggest number first please Hello, could you send the labels back in the order asked? Thank you. II, I, III
(II: 5.85, I: 5.52, III: 5.15)
